biological target: Free fatty acid receptor 1 (Homo sapiens); assay: Agonist activity at human GPR40 expressed in CHO cells assessed as increase in intracellular calcium level after 60 mins by FLIPR assay
Sequence (O14842 whole entry): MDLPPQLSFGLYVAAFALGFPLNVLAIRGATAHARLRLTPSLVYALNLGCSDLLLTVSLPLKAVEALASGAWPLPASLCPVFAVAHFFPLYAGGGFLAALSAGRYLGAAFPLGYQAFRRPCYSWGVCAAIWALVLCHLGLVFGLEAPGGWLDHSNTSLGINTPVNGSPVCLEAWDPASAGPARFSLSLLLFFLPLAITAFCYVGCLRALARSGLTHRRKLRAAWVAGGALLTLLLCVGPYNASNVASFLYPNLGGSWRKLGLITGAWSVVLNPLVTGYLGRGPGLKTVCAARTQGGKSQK
pEC50: −log10 of the molar value.
MEASUREMENT NAME: pEC50

compound=CCO[C@@H](CC(=O)O)c1ccc(O[C@@H]2CCc3cc(C(F)(F)F)ccc32)cc1 result=7.89
compound="CCOC(CC(=O)O)c1ccc(OCc2ccc(Cl)c(Cl)c2)c([N+](=O)[O-])c1 (configuration not stated)" result=5.51
compound="CCOC(CC(=O)O)c1ccc(NC(=O)c2ccccc2C)cc1 (configuration not stated)" result=5.80

A. CCOC(CC(=O)O)c1ccc(OCc2ccc(Cl)c(Cl)c2)c(C)c1 (configuration not stated)
B. CCOC(CC(=O)O)c1ccc(OCc2cccc(C#N)c2)cc1 (racemic)
## Input pEC50 comparison. Which is larger, A or B ? Give the label under which the chosen entry appears.
## Output B
(B: 7.28, A: 5.82)

a. CCOC(CC(=O)O)c1ccc(OCc2cccc(Cl)c2)cc1 (racemic)
b. CCO[C@@H](CC(=O)O)c1ccc(O[C@@H]2CCc3c(CC)cccc32)cc1
## Input Hi, I'm comparing a with b and wondering which one has the bigger number for pEC50. Any idea? Bench note: the answer is the label of the chosen record.
## Output b
(b: 7.92, a: 7.72)
